Measured koff, listed per entry for reference.
Biological target: T1, rat DLL4 extracellular domain (rat, UniProt D3ZHH1 28-530)
T1 construct: extracellular domain; also called ratDLL4 ECD
T1 sequence (D3ZHH1 28-530): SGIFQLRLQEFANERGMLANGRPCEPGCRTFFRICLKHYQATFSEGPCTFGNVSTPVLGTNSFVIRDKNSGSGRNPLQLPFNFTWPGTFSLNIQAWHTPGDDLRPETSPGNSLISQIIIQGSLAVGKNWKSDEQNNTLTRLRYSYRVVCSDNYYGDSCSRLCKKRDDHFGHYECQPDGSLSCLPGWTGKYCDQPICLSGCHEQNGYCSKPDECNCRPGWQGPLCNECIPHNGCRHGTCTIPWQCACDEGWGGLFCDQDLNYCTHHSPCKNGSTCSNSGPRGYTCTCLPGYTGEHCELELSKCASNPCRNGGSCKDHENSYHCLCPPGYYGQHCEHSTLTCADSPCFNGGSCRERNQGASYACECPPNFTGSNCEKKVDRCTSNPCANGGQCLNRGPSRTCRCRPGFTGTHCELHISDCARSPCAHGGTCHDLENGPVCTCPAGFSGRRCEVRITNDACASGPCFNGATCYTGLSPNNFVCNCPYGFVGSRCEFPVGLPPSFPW
Assay: SPR (Biacore)
endpoint_label: koff (s⁻¹)

binder	experimental_result
h1A11.F5 (antibody, V domains shown, also called h1A11.F5 VH / h1A11.E12 VL) VH: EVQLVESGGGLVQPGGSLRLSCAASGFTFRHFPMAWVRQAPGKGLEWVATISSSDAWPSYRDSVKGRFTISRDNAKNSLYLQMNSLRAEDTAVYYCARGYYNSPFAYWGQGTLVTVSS VL: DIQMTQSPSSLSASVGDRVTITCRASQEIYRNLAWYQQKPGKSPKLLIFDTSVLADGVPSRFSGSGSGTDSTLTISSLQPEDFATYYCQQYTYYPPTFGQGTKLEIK	0.000679
h1A11.A8 (antibody, V domains shown, also called h1A11.A8 VH / h1A11VL.1) VH: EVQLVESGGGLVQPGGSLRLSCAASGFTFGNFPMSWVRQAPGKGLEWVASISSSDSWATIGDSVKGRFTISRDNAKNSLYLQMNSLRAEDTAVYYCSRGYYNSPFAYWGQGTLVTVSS VL: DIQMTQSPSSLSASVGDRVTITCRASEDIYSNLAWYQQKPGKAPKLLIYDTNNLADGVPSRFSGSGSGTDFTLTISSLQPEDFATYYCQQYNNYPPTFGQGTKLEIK	0.0065
h1A11.H2 (antibody, V domains shown, also called h1A11.H2 VH / h1A11.E12 VL) VH: EVQLVESGGGLVQPGGSLRLSCAASGFTFGNFPMSWVRQAPGKGLEWVASISSSDSWATIGDSVKGRFTISRDNAKNSLYLQMNSLRAEDTAVYYCARGYYNSPFAFWGQGTLVTVSS VL: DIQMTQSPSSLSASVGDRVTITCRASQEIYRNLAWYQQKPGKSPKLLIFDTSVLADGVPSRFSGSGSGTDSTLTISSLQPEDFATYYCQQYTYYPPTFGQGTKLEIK	0.00283
